Data origin: patent US20110301073

# binding signal (normalized ELISA) values compiled below
Test system: TALE test backbone, repeat 5 RVD AD (synthetic (Xanthomonas TALE))
Cond: ELISA
Respond with the number and no other words.

{"Sequence Text": "TTGACCATCCT (double strand) [CCA target]", "Study System": "TALE test backbone, repeat 5 RVD AD (synthetic (Xanthomonas TALE))", "binding signal (normalized ELISA)": 0.4}
{"Sequence Text": "TTGACGATCCT (double strand) [CGA target]", "Study System": "TALE test backbone, repeat 5 RVD AD (synthetic (Xanthomonas TALE))", "binding signal (normalized ELISA)": 0}
{"Sequence Text": "TTGACAATCCT (double strand) [CAA target]", "Study System": "TALE test backbone, repeat 5 RVD AD (synthetic (Xanthomonas TALE))", "binding signal (normalized ELISA)": 0.02}

Okay, next one:
// query State the recorded binding signal (normalized ELISA) for this entry: TTGACTATCCT (double strand) [CTA target]
// result 0.01

---

# binding signal (normalized ELISA) values compiled below
System: TALE test backbone, repeat 5 RVD NS (synthetic (Xanthomonas TALE))
Cond: ELISA
Respond with the number and no other words.

Examples from the recorded data:
{"Sequence Text": "TTGACCATCCT (double strand) [CCA target]", "Study System": "TALE test backbone, repeat 5 RVD NS (synthetic (Xanthomonas TALE))", "binding signal (normalized ELISA)": 0.26}
{"Sequence Text": "TTGACTATCCT (double strand) [CTA target]", "Study System": "TALE test backbone, repeat 5 RVD NS (synthetic (Xanthomonas TALE))", "binding signal (normalized ELISA)": 0.54}
{"Sequence Text": "TTGACAATCCT (double strand) [CAA target]", "Study System": "TALE test backbone, repeat 5 RVD NS (synthetic (Xanthomonas TALE))", "binding signal (normalized ELISA)": 0.51}

Okay, next one:
// query State the recorded binding signal (normalized ELISA) for this entry: TTGACGATCCT (double strand) [CGA target]
// result 0.71

---

# binding signal (normalized ELISA) values compiled below
System: TALE test backbone, repeat 5 RVD IP (synthetic (Xanthomonas TALE))
Cond: ELISA
Respond with the number and no other words.

Examples from the recorded data:
{"Sequence Text": "TTGACAATCCT (double strand) [CAA target]", "binding signal (normalized ELISA)": 0.04}
{"Sequence Text": "TTGACCATCCT (double strand) [CCA target]", "binding signal (normalized ELISA)": 0.13}
{"Sequence Text": "TTGACGATCCT (double strand) [CGA target]", "binding signal (normalized ELISA)": 0}

// query State the recorded binding signal (normalized ELISA) for this entry: TTGACTATCCT (double strand) [CTA target]
// result 0.84

---

Tested on: TALE test backbone, repeat 5 RVD RA (synthetic (Xanthomonas TALE))
Cond: ELISA
Value Kind: binding signal (normalized ELISA)
Respond with the number and no other words.

{"Sequence Text": "TTGACCATCCT (double strand) [CCA target]", "Study System": "TALE test backbone, repeat 5 RVD RA (synthetic (Xanthomonas TALE))", "binding signal (normalized ELISA)": 0.89}
{"Sequence Text": "TTGACAATCCT (double strand) [CAA target]", "Study System": "TALE test backbone, repeat 5 RVD RA (synthetic (Xanthomonas TALE))", "binding signal (normalized ELISA)": 0.73}
{"Sequence Text": "TTGACGATCCT (double strand) [CGA target]", "Study System": "TALE test backbone, repeat 5 RVD RA (synthetic (Xanthomonas TALE))", "binding signal (normalized ELISA)": 0.53}

Okay, next one:
// query State the recorded binding signal (normalized ELISA) for this entry: TTGACTATCCT (double strand) [CTA target]
// result 1.64

---

Tested on: TALE test backbone, repeat 5 RVD HA (synthetic (Xanthomonas TALE))
Cond: ELISA
# binding signal (normalized ELISA) values compiled below
Respond with the number and no other words.

Examples from the recorded data:
{"Sequence Text": "TTGACTATCCT (double strand) [CTA target]", "Study System": "TALE test backbone, repeat 5 RVD HA (synthetic (Xanthomonas TALE))", "Val": 1.54}
{"Sequence Text": "TTGACAATCCT (double strand) [CAA target]", "Study System": "TALE test backbone, repeat 5 RVD HA (synthetic (Xanthomonas TALE))", "Val": 0.46}

// query State the recorded binding signal (normalized ELISA) for this entry: TTGACGATCCT (double strand) [CGA target]
// result 0.24

// query State the recorded binding signal (normalized ELISA) for this entry: TTGACCATCCT (double strand) [CCA target]
// result 0.53

---

Test system: TALE test backbone, repeat 5 RVD TA (synthetic (Xanthomonas TALE))
Cond: ELISA
# binding signal (normalized ELISA) values compiled below
Respond with the number and no other words.

Examples from the recorded data:
{"Sequence Text": "TTGACTATCCT (double strand) [CTA target]", "binding signal (normalized ELISA)": 0.76}
{"Sequence Text": "TTGACGATCCT (double strand) [CGA target]", "binding signal (normalized ELISA)": 0.01}
{"Sequence Text": "TTGACAATCCT (double strand) [CAA target]", "binding signal (normalized ELISA)": 0.15}

Okay, next one:
// query State the recorded binding signal (normalized ELISA) for this entry: TTGACCATCCT (double strand) [CCA target]
// result 0.2

---

System: TALE test backbone, repeat 5 RVD HN (synthetic (Xanthomonas TALE))
Cond: ELISA
# binding signal (normalized ELISA) values compiled below
Respond with the number and no other words.

Examples from the recorded data:
{"Sequence Text": "TTGACGATCCT (double strand) [CGA target]", "Value Kind": "binding signal (normalized ELISA)", "Val": 0.86}
{"Sequence Text": "TTGACAATCCT (double strand) [CAA target]", "Value Kind": "binding signal (normalized ELISA)", "Val": 0.5}
{"Sequence Text": "TTGACCATCCT (double strand) [CCA target]", "Value Kind": "binding signal (normalized ELISA)", "Val": 0}

// query State the recorded binding signal (normalized ELISA) for this entry: TTGACTATCCT (double strand) [CTA target]
// result 0.01

---

System: TALE test backbone, repeat 5 RVD SG (synthetic (Xanthomonas TALE))
Cond: ELISA
Value Kind: binding signal (normalized ELISA)
Respond with the number and no other words.

Examples from the recorded data:
{"Sequence Text": "TTGACGATCCT (double strand) [CGA target]", "binding signal (normalized ELISA)": 0.2}
{"Sequence Text": "TTGACTATCCT (double strand) [CTA target]", "binding signal (normalized ELISA)": 1.23}
{"Sequence Text": "TTGACCATCCT (double strand) [CCA target]", "binding signal (normalized ELISA)": 0.23}

// query State the recorded binding signal (normalized ELISA) for this entry: TTGACAATCCT (double strand) [CAA target]
// result 0.36

---

Test system: TALE test backbone, repeat 5 RVD AT (synthetic (Xanthomonas TALE))
Cond: ELISA
Value Kind: binding signal (normalized ELISA)
Respond with the number and no other words.

Examples from the recorded data:
{"Sequence Text": "TTGACTATCCT (double strand) [CTA target]", "binding signal (normalized ELISA)": 0.56}
{"Sequence Text": "TTGACCATCCT (double strand) [CCA target]", "binding signal (normalized ELISA)": 0.58}

// query State the recorded binding signal (normalized ELISA) for this entry: TTGACAATCCT (double strand) [CAA target]
// result 1.29

// query State the recorded binding signal (normalized ELISA) for this entry: TTGACGATCCT (double strand) [CGA target]
// result 0.76

---

# binding signal (normalized ELISA) values compiled below
System: TALE test backbone, repeat 5 RVD RI (synthetic (Xanthomonas TALE))
Cond: ELISA
Respond with the number and no other words.

Examples from the recorded data:
{"Sequence Text": "TTGACCATCCT (double strand) [CCA target]", "binding signal (normalized ELISA)": 0.05}
{"Sequence Text": "TTGACTATCCT (double strand) [CTA target]", "binding signal (normalized ELISA)": 0.02}
{"Sequence Text": "TTGACGATCCT (double strand) [CGA target]", "binding signal (normalized ELISA)": 0.02}

// query State the recorded binding signal (normalized ELISA) for this entry: TTGACAATCCT (double strand) [CAA target]
// result 0.65

---

System: TALE test backbone, repeat 5 RVD KG (synthetic (Xanthomonas TALE))
Cond: ELISA
# binding signal (normalized ELISA) values compiled below
Respond with the number and no other words.

{"Sequence Text": "TTGACCATCCT (double strand) [CCA target]", "Val": 0.27}

// query State the recorded binding signal (normalized ELISA) for this entry: TTGACAATCCT (double strand) [CAA target]
// result 0.47

// query State the recorded binding signal (normalized ELISA) for this entry: TTGACGATCCT (double strand) [CGA target]
// result 0.2

// query State the recorded binding signal (normalized ELISA) for this entry: TTGACTATCCT (double strand) [CTA target]
// result 1.29
